Values from patent US10975080B2

# SUBJECT_OF_TEST: SHP2 (Homo sapiens (Human))
# TEST_DETAILS: SHP2 Allosteric Inhibition Assay
# Format: biochemical
# CONDITION_PARAMETERS: 0.5 nM SHP2 with 0.5 μM peptide IRS1_pY1172(dPEG8)pY1222; surrogate substrate DiFMUP; 25° C.; read-out: SHP2 IC50
Classify: label 1 when IC50 is strictly less than 50 nM; label 0 when IC50 is not.

Worked set:
SMILES_RECORD	LABEL_CLASS
Cn1c(N2CCC3(CC2)CC(F)(F)C[C@H]3N)nc2[nH]nc(-c3ccncc3)c2c1=O	label 1
C[C@@H]1OCC2(CCN(c3nc4[nH]nc(-c5ccnc(Cl)c5Br)c4c(=O)n3C)CC2)[C@@H]1N	label 1
Cn1c(N2CCC3(CCC[C@H]3N)CC2)nc2[nH]nc(-c3ccccc3)c2c1=O	label 1
C[C@@H]1OCC2(CCN(c3nc4[nH]nc(-c5ccc(N)nc5Cl)c4c(=O)n3C)CC2)[C@@H]1N	label 1
Cc1ncccc1-c1n[nH]c2nc(N3CCC4(CC3)CO[C@@H](C)[C@H]4N)n(C)c(=O)c12	label 0
Cn1c(N2CCC(C)(CN)CC2)nc2[nH]nc(-c3ccncc3Cl)c2c1=O	label 0

// query Please check: IC50 for CNc1nccc(-c2n[nH]c3nc(N4CCC5(CC4)CO[C@@H](C)[C@H]5N)n(C)c(=O)c23)c1Cl , strictly under 50 nM or not?
// result label 0

// query Decide: IC50 of C[C@@H]1OCC2(CCN(c3nc4[nH]nc(-c5ccnc(N)c5)c4c(=O)n3C)CC2)[C@@H]1N strictly below 50 nM?
// result label 1

* * *

# SUBJECT_OF_TEST: SHP2 (Homo sapiens (Human), UniProt Q06124)
# Sequence (Q06124 whole entry): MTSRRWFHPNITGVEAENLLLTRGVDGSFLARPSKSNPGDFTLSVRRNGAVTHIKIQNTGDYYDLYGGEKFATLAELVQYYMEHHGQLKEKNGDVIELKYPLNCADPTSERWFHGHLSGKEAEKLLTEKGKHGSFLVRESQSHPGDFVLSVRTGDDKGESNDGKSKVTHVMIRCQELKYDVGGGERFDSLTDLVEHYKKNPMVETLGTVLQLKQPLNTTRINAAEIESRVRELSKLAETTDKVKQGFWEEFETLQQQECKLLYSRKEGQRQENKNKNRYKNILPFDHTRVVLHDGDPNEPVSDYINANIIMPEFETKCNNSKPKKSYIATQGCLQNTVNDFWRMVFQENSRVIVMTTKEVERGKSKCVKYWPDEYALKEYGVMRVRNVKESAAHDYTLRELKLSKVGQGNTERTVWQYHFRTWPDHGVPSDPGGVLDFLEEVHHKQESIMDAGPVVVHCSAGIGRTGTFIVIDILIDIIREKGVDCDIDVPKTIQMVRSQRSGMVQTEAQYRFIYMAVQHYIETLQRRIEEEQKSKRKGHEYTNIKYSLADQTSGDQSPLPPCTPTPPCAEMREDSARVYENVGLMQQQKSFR
# TEST_DETAILS: SHP2 Allosteric Inhibition Assay
# Assay type: biochemical
# CONDITION_PARAMETERS: 0.5 nM SHP2 with 0.5 μM peptide IRS1_pY1172(dPEG8)pY1222; surrogate substrate DiFMUP; 25° C.; read-out: IC50
# IC50 annotations
Lab book: enter the figure in nM, no units written.

// solved cases for IC50 follow
SMILES_RECORD	RECORDED_RESULT
C[C@@H]1OCC2(CCN(c3nc4[nH]nc(-c5cc(N)nc(Cl)c5Cl)c4c(=O)n3C)CC2)[C@@H]1N	380
COc1nccc(-c2c[nH]c3nc(N4CCC5(CC4)CO[C@@H](C)[C@H]5N)[nH]c(=O)c23)c1Cl	26
C[C@@H]1OCC2(CCN(c3cnc4c(-c5cccc(Cl)c5Cl)c[nH]c4n3)CC2)[C@@H]1N	39

--- query ---
// query I'd like to know its IC50. The compound in question is CC1(CN)CCN(c2nc3[nH]cc(-c4cccc(Cl)c4Cl)c3c(=O)[nH]2)CC1
// result 62

* * *

# SUBJECT_OF_TEST: UniProt:Q06124
# TEST_DETAILS: SHP2 Allosteric Inhibition Assay
# Format: biochemical
# CONDITION_PARAMETERS: 0.5 nM SHP2 with 0.5 μM peptide IRS1_pY1172(dPEG8)pY1222; surrogate substrate DiFMUP; 25° C.; read-out: SHP2 IC50
IC50 reference
All answers are understood in nM, so give the number only.

COMPOUND	SUBJECT_OF_TEST	IC50, nM
Cc1nc(N)ccc1-c1n[nH]c2nc(N3CCC4(CC3)C[C@@H](C)C[C@H]4N)n(C)c(=O)c12	UniProt:Q06124	16
C[C@@H]1OCC2(CCN(c3nc4[nH]nc(Sc5ccnc(N)c5Cl)c4c(=O)n3C)CC2)[C@@H]1N	UniProt:Q06124	27
C[C@@H]1OCC2(CCN(c3nc4[nH]nc(-c5cccc(F)c5F)c4c(=O)n3C)CC2)[C@@H]1N	UniProt:Q06124	13

// query Form field - read-out: IC50; system: UniProt:Q06124; submitted item: CNc1nccc(-c2n[nH]c3nc(N4CCC5(CC4)C[C@@H](C)C[C@H]5N)n(C)c(=O)c23)c1Cl
// result 30

// query Test system UniProt:Q06124; read-out IC50; what value for C[C@@H]1OCC2(CCN(c3nc4[nH]nc(-c5ccncc5)c4c(=O)n3C)CC2)[C@@H]1N ?
// result 8

// query Fill in the recorded IC50 for this compound, with UniProt:Q06124 as test system: C[C@@H]1OCC2(CCN(c3nc4[nH]nc(-c5ccc(F)cc5)c4c(=O)n3C)CC2)[C@@H]1N
// result 11

// query Reported IC50 for UniProt:Q06124, given C[C@@H]1OCC2(CCN(c3nc4[nH]nc(-c5ccnc(Br)c5)c4c(=O)n3C)CC2)[C@@H]1N ?
// result 27

// query Lab note: need IC50 with UniProt:Q06124 for entry Cn1c(N2CCC3(CCC[C@H]3N)CC2)nc2[nH]nc(-c3ccnc(Cl)c3Cl)c2c1=O , please look it up.
// result 57

// query State its IC50 on UniProt:Q06124: C[C@@H]1OCC2(CCN(c3nc4[nH]nc(-c5cc(F)cc(F)c5)c4c(=O)n3C)CC2)[C@@H]1N
// result 38

// query What IC50 appears in the records for this compound with UniProt:Q06124? C[C@@H]1OCC2(CCN(c3nc4[nH]nc(-c5c(F)ccc(Cl)c5Cl)c4c(=O)n3C)CC2)[C@@H]1N
// result 450

// query API: value(readout= IC50, system= UniProt:Q06124, query= COc1ccc(-c2n[nH]c3nc(N4CCC5(CC4)CO[C@@H](C)[C@H]5N)n(C)c(=O)c23)cc1 )
// result 20

// query Identify the measured IC50 of Cc1nc(N)ccc1-c1n[nH]c2nc(N3CCC4(CC3)CC(F)(F)C[C@H]4N)n(C)c(=O)c12 for UniProt:Q06124.
// result 9

// query Identify the measured IC50 of Cn1c(N2CCC3(CCCCC3N)CC2)nc2[nH]nc(-c3cccc(Cl)c3Cl)c2c1=O (centres unmarked) for UniProt:Q06124.
// result 72

// query Checklist item: IC50 tested on UniProt:Q06124, entry C[C@@H]1OCC2(CCN(c3nc4[nH]nc(-c5ccc(F)c(F)c5)c4c(=O)n3C)CC2)[C@@H]1N , value?
// result 11
